Values from patent US9133181B2

ASSAY_TARGET: human full-length recombinant PKC βII (Homo sapiens)
Construct: Active human full-length recombinant PKC βII; purchased Invitrogen GmbH, Darmstadt, Germany
Sequence (P05771 1-673 isoform P05771-2): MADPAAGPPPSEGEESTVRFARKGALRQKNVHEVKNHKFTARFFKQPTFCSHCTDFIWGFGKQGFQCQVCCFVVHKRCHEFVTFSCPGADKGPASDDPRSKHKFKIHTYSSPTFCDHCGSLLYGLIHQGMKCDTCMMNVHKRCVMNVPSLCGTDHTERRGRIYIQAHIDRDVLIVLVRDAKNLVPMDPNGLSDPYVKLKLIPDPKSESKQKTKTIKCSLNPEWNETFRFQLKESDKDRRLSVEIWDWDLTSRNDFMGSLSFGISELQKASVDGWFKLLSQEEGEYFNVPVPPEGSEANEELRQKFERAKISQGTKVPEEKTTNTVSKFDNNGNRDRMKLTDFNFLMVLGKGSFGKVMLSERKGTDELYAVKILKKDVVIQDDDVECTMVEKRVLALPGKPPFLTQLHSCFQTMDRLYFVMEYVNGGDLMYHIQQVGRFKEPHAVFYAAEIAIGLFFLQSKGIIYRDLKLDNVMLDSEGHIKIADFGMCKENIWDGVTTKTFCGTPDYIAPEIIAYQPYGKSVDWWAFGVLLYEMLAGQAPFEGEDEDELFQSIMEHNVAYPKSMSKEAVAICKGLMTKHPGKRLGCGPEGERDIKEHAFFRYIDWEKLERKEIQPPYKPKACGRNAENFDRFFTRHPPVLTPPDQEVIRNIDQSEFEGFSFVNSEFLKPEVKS
PROTOCOL_DETAILS: Determination of PKC βII inhibition (Caliper mobility shift kinase assay)
Type: biochemical
EXPERIMENTAL_PARAMETERS: final compound concentration 1.14 μM (±0.15 μM); 60 min incubation at 32° C.
MEASUREMENT_KIND: inhibition at 1.14 µM (%)

> print(dat)
                                    compound                              assay.target  endpoint.result
 1  CCC1(CC)CNCCN1Cc1cc(-c2ccc(O)cc2F)nc2[nH]nc(C)c12 [Example 18]  human full-length recombinant PKC βII (Homo sapiens)               98
 2  COCC(=O)N1CC(C)(C)N(Cc2cc(-c3ccc(O)cc3F)nc3[nH]nc(C)c23)CC1(C)C [Example 75]  human full-length recombinant PKC βII (Homo sapiens)               96
 3  CCC1(NCc2cc(-c3ccc(O)cc3)nc3[nH]nc(C)c23)CCCNC1 (stereo not shown) [Example 46]  human full-length recombinant PKC βII (Homo sapiens)               90
 4  CC[C@@]1(C)CNC(C)(C)CN1Cc1cc(-c2ccc(O)cc2F)nc2[nH]nc(C)c12 [Example 122]  human full-length recombinant PKC βII (Homo sapiens)              100
 5  Cc1n[nH]c2nc(-c3ccc(O)cc3F)cc(CN3C[C@@](C)(C4CC4)NCC3(C)C)c12 [Example 149]  human full-length recombinant PKC βII (Homo sapiens)               98
 6  COCC(=O)NC1(C)CCCN(Cc2cc(-c3ccc(O)cc3F)nc3[nH]nc(C)c23)C1 (stereo not shown) [Example 81]  human full-length recombinant PKC βII (Homo sapiens)               97
 7  Cc1n[nH]c2nc(-c3ccc(O)cc3)cc(CN3CC(C)(C)NCC3(C)C)c12 [Example 49]  human full-length recombinant PKC βII (Homo sapiens)               95
 8  Cc1n[nH]c2nc(-c3ccc(O)cc3F)cc(CN3CCNCC3c3ccccc3)c12 (stereo not shown) [Example 1]  human full-length recombinant PKC βII (Homo sapiens)               95
 9  Cc1n[nH]c2nc(-c3ccc(O)cc3F)cc(CN3CC4(CCCC4)NC[C@H]3C)c12 [Example 138]  human full-length recombinant PKC βII (Homo sapiens)               98
10  Cc1n[nH]c2nc(-c3ccc(O)cc3F)cc(CN3C[C@@H](C)NC[C@H]3C(F)(F)F)c12 [Example 153]  human full-length recombinant PKC βII (Homo sapiens)               97
11  Cc1n[nH]c2nc(-c3ccc(O)cc3F)cc(CN3CC4(CCCC4)NCC3C)c12 (stereo not shown) [Example 35]  human full-length recombinant PKC βII (Homo sapiens)               78
12  Cc1n[nH]c2nc(-c3ccc(O)cc3F)cc(CN3CCNC[C@@H]3c3cccc(F)c3)c12 [Example 119]  human full-length recombinant PKC βII (Homo sapiens)               86
13  Cc1n[nH]c2nc(-c3ccc(O)cc3)cc(CN3CC(C)(C)N(CCC(F)(F)F)CC3(C)C)c12 [Example 83]  human full-length recombinant PKC βII (Homo sapiens)               69
14  CC[C@]1(C)CNC(C)(C)CN1Cc1cc(-c2ccc(O)cc2)nc2[nH]nc(C)c12 [Example 141]  human full-length recombinant PKC βII (Homo sapiens)               98
15  Cc1n[nH]c2nc(-c3ccc(O)cc3F)cc(CN3CC(C)(C)NCC3C)c12 (stereo not shown) [Example 38]  human full-length recombinant PKC βII (Homo sapiens)               99
16  Cc1n[nH]c2nc(-c3ccc(O)cc3)cc(CN3CC(C)(C)N(C)CC3(C)C)c12 [Example 84]  human full-length recombinant PKC βII (Homo sapiens)               98
